# TEST_METHOD_NOTES: Concentrations in plasma and brain of wild-type and M1R KO mice
# Format: in vivo
# CONDITION_SET: mouse, brain/plasma, po, 20 mg/kg, wild-type mice, 20 mg/kg p.o.
MEASUREMENT_TYPE: Kp at 2 h

- MOLECULE: "Cc1ccc(Cc2cc3c(=O)n([C@H]4CCCC[C@@H]4O)cnc3c3ccccc23)cn1 [MK‐7622, reference compound]"
  ASSAY_RESULT: 0.26

----------
# TEST_METHOD_NOTES: Concentrations in plasma and brain of wild-type and M1R KO mice
# Assay type: in vivo
# CONDITION_SET: mouse, brain (hippocampus), po, 10 mg/kg, M1R KO mice hippocampus, 10 mg/kg p.o.; mean ± SD; read-out: Brain concentration
# Experimental: Eight‐week‐old Long‐Evans rats, 8‐ to 9‐week‐old C57BL/6J mice, and 22‐ or 29‐week‐old M1R KO mice and their WT littermates were used in this study. […] IP1 and protein concentrations in the diluted supernatant were measured using IP‐One HTRF assay kit (Cisbio Bioassays) and BCA Protein Assay Kit (Thermo Fisher Scientific Inc), respectively, according to the manufacturers’ instructions. IP1 production was expressed as the ratio of IP1 to protein concentrations.
MEASUREMENT_TYPE: concentration at 2 h (ng/g)

- MOLECULE: "Cc1c(Cc2ccc(Cl)nc2)cc2c(c1Cl)OCN([C@H]1CCC[C@@H]1O)C2=O [T‐495]"
  MEASUREMENT_TYPE: "concentration at 2 h"
  ASSAY_RESULT: 856

----------
# EXPERIMENTAL_TARGET: human M1R (Homo sapiens, UniProt P11229)
# Sequence (P11229 whole entry): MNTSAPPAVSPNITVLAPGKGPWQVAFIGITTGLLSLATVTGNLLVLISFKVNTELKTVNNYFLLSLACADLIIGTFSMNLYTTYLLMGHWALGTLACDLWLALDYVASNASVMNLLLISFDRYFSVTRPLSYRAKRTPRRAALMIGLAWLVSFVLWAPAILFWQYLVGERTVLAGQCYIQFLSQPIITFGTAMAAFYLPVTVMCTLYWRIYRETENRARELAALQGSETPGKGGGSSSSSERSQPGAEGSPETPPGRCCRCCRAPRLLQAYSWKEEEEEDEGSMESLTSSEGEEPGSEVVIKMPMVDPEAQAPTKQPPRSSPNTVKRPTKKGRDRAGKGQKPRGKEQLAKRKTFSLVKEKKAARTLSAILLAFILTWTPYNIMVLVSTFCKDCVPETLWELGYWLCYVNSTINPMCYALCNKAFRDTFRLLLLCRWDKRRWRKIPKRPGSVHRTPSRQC
# TEST_METHOD_NOTES: Ca2+ mobilization assay, PAM activity (with EC20 ACh), CHO‐K1 cells
# Assay type: cell-based
# Set-up: expressed in transfected cells; host or cells: CHO-K1
pEC50: −log10 of the molar value.

- MOLECULE: "Cc1ccc(Cc2cc3c(=O)n([C@H]4CCCC[C@@H]4O)cnc3c3ccccc23)cn1 [MK‐7622, reference compound]"
  EXPERIMENTAL_TARGET: "human M1R (Homo sapiens, UniProt P11229)"
  pEC50: 8.88
- MOLECULE: "Cc1c(Cc2ccc(Cl)nc2)cc2c(c1Cl)OCN([C@H]1CCC[C@@H]1O)C2=O [T‐495]"
  EXPERIMENTAL_TARGET: "human M1R (Homo sapiens, UniProt P11229)"
  pEC50: 8.64

----------
# TEST_METHOD_NOTES: Concentrations in rat plasma and brain (IP1 study)
# Type: in vivo
# CONDITION_SET: Long-Evans, plasma, po; rat, 10 mg/kg p.o., 2 h; mean ± SD, n = 6; read-out: Plasma concentration
# Experimental: Eight‐week‐old Long‐Evans rats, 8‐ to 9‐week‐old C57BL/6J mice, and 22‐ or 29‐week‐old M1R KO mice and their WT littermates were used in this study. […] IP1 and protein concentrations in the diluted supernatant were measured using IP‐One HTRF assay kit (Cisbio Bioassays) and BCA Protein Assay Kit (Thermo Fisher Scientific Inc), respectively, according to the manufacturers’ instructions. IP1 production was expressed as the ratio of IP1 to protein concentrations.
MEASUREMENT_TYPE: concentration at 2 h (ng/mL)

- COMPOUND: "Cc1ccc(Cc2cc3c(=O)n([C@H]4CCCC[C@@H]4O)cnc3c3ccccc23)cn1 [MK‐7622, reference compound]"
  ASSAY_RESULT: 944
- COMPOUND: "Cc1c(Cc2ccc(Cl)nc2)cc2c(c1Cl)OCN([C@H]1CCC[C@@H]1O)C2=O"
  ASSAY_RESULT: 298

----------
Below, each entry is listed alongside its reported concentration at 2 h.
# TEST_METHOD_NOTES: Concentrations in mouse plasma and brain after single and repeated treatment
# Assay type: in vivo
# CONDITION_SET: C57BL/6J, plasma, oral, 10 mg/kg, pretreated with the compound 10 mg/kg p.o. for 13 days, 10 mg/kg p.o., mean ± SD, read-out: Plasma concentration
MEASUREMENT_TYPE: concentration at 2 h (ng/mL)

- COMPOUND: "Cc1ccc(Cc2cc3c(=O)n([C@H]4CCCC[C@@H]4O)cnc3c3ccccc23)cn1 [MK‐7622, reference compound]"
  ASSAY_RESULT: 490
- COMPOUND: "Cc1c(Cc2ccc(Cl)nc2)cc2c(c1Cl)OCN([C@H]1CCC[C@@H]1O)C2=O"
  ASSAY_RESULT: 1300

----------
# TEST_METHOD_NOTES: Concentrations in plasma and brain of wild-type and M1R KO mice
# Assay type: in vivo
# CONDITION_SET: mouse, brain/plasma, po, 10 mg/kg, M1R KO mice, 10 mg/kg p.o.
MEASUREMENT_TYPE: Kp at 2 h

- MOL: "Cc1c(Cc2ccc(Cl)nc2)cc2c(c1Cl)OCN([C@H]1CCC[C@@H]1O)C2=O"
  ASSAY_RESULT: 0.55

----------
# TEST_METHOD_NOTES: Concentrations in plasma and brain of wild-type and M1R KO mice
# Assay type: in vivo
# CONDITION_SET: mouse, plasma, po, 20 mg/kg, M1R KO mice, 20 mg/kg p.o.; mean ± SD, n = 10; read-out: Plasma concentration

- COMPOUND: "Cc1ccc(Cc2cc3c(=O)n([C@H]4CCCC[C@@H]4O)cnc3c3ccccc23)cn1 [MK‐7622, reference compound]"
  concentration at 2 h (ng/mL): 2190

----------
# TEST_METHOD_NOTES: Concentrations in plasma and brain of wild-type and M1R KO mice
# Assay type: in vivo
# CONDITION_SET: mouse, brain (hippocampus), po, 20 mg/kg, wild-type mice hippocampus, 20 mg/kg p.o.; mean ± SD; read-out: Brain concentration
MEASUREMENT_TYPE: concentration at 2 h (ng/g)

- MOLECULE: "Cc1ccc(Cc2cc3c(=O)n([C@H]4CCCC[C@@H]4O)cnc3c3ccccc23)cn1 [MK‐7622, reference compound]"
  MEASUREMENT_TYPE: "concentration at 2 h"
  UNIT_NAME: "ng/g"
  ASSAY_RESULT: 582

----------
# TEST_METHOD_NOTES: Concentrations in rat plasma and brain (IP1 study)
# Assay type: in vivo
# CONDITION_SET: Long-Evans, plasma, po; rat, 3 mg/kg p.o., 2 h; mean ± SD, n = 6; read-out: Plasma concentration
Below, each entry is listed alongside its reported concentration at 2 h.
MEASUREMENT_TYPE: concentration at 2 h (ng/mL)

- MOLECULE: "Cc1ccc(Cc2cc3c(=O)n([C@H]4CCCC[C@@H]4O)cnc3c3ccccc23)cn1 [MK‐7622, reference compound]"
  MEASUREMENT_TYPE: "concentration at 2 h"
  UNIT_NAME: "ng/mL"
  ASSAY_RESULT: 218
- MOLECULE: "Cc1c(Cc2ccc(Cl)nc2)cc2c(c1Cl)OCN([C@H]1CCC[C@@H]1O)C2=O"
  MEASUREMENT_TYPE: "concentration at 2 h"
  UNIT_NAME: "ng/mL"
  ASSAY_RESULT: 49.6

----------
# EXPERIMENTAL_TARGET: UniProt P11229
# TEST_METHOD_NOTES: Ca2+ mobilization assay, agonist activity (absence of ACh), CHO‐K1 cells
# Format: cell-based
# Set-up: expressed in transfected cells; host or cells: CHO-K1
pEC50: −log10 of the molar value.
Below, each entry is listed alongside its reported pEC50.

- COMPOUND: "Cc1ccc(Cc2cc3c(=O)n([C@H]4CCCC[C@@H]4O)cnc3c3ccccc23)cn1 [MK‐7622, reference compound]"
  pEC50: 6.39
- COMPOUND: "Cc1c(Cc2ccc(Cl)nc2)cc2c(c1Cl)OCN([C@H]1CCC[C@@H]1O)C2=O"
  pEC50: 6.19

----------
# TEST_METHOD_NOTES: Concentrations in plasma and brain of wild-type and M1R KO mice
# Assay type: in vivo
# CONDITION_SET: mouse, plasma, po, 20 mg/kg, wild-type mice, 20 mg/kg p.o.; mean ± SD, n = 10; read-out: Plasma concentration
# Procedure: Eight‐week‐old Long‐Evans rats, 8‐ to 9‐week‐old C57BL/6J mice, and 22‐ or 29‐week‐old M1R KO mice and their WT littermates were used in this study. […] IP1 and protein concentrations in the diluted supernatant were measured using IP‐One HTRF assay kit (Cisbio Bioassays) and BCA Protein Assay Kit (Thermo Fisher Scientific Inc), respectively, according to the manufacturers’ instructions. IP1 production was expressed as the ratio of IP1 to protein concentrations.

- MOLECULE: "Cc1ccc(Cc2cc3c(=O)n([C@H]4CCCC[C@@H]4O)cnc3c3ccccc23)cn1 [MK‐7622, reference compound]"
  concentration at 2 h: "2240 ng/mL"

Data provenance is paper PMC6986443.
